# Procedure Details: Tmax in rat
# Format: ADME, organism-based
# Run Parameters: in vivo
Attribute Measured: Tmax
# number then unit; no other words

For the compound CC(C)n1cc(-c2ccc(C#N)c(F)c2)c2ccc(NS(C)(=O)=O)cc21 , what Tmax is on record?
4 h

* * *

# System Tested: Progesterone receptor (Homo sapiens, UniProt P06401)
# Sequence (P06401 whole entry): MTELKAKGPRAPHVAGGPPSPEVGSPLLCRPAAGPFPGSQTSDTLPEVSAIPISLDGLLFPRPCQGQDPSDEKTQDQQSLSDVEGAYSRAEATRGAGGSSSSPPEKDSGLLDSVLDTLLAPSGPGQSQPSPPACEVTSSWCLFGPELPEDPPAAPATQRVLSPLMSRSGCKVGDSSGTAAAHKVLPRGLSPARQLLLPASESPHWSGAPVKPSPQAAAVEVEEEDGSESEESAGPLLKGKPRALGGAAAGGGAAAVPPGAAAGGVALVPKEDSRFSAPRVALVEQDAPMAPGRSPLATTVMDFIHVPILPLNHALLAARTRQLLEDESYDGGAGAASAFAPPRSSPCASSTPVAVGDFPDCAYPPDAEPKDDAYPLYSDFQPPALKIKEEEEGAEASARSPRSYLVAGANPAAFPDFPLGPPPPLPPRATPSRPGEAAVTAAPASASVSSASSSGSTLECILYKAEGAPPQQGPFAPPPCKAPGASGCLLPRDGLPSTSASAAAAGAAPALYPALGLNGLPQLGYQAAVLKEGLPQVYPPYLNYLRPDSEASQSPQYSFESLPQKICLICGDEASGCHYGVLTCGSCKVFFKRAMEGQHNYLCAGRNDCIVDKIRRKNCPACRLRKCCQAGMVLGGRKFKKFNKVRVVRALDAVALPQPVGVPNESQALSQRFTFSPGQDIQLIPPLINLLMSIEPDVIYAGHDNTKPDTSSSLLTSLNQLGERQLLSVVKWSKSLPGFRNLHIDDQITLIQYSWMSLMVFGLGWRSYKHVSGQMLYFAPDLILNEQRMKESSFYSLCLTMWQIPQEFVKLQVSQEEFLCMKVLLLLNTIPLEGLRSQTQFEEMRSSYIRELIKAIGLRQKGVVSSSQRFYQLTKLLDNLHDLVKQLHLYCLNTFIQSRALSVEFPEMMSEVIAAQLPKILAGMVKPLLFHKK
# Procedure Details: Antagonist activity at human progesterone receptor expressed in HEK293 cells assessed as inhibition of […]-induced transcriptional activity by GRE-driven luciferase reporter gene assay
pIC50: −log10 of the molar value.
Response key: condition met means pIC50 >= 8; condition not met means pIC50 < 8.

CC(C)n1cc(-c2ccc(C#N)c(F)c2)c2ccc(NS(C)(=O)=O)cc21 condition met
C[C@](c1ccc(F)cc1F)(c1c[nH]c2c(NS(C)(=O)=O)cccc12)C1CC1 condition not met

Query molecule follows.
pIC50 >= 8 for C[C@@](c1ccc(F)cc1F)(c1c[nH]c2c(NS(C)(=O)=O)cccc12)C1CC1 ?
condition not met

From: ChEMBL document CHEMBL1671834
